pIC50: −log10 of the molar value.
Several reports have described pIC50 for O-acyltransferase (Oryctolagus cuniculus); a selection of those results is presented here.
readoutType: pIC50

In [3]: df
Out[3]:
                                querysmiles  readouttype           val
0     Cc1nnc(NC(=O)Nc2c(C(C)C)cccc2C(C)C)s1        pIC50        < 5.30
1  CC(C)c1cccc(C(C)C)c1NC(=O)CSCCCCCCCCCN1CCN(c2ccccc2)CC1        pIC50  7.00 to 8.00
2  CCCCCCCCCCOS(=O)(=O)NC(=O)Nc1c(C(C)C)cccc1C(C)C        pIC50        < 5.00
